The reported measurements were obtained from PubChem BioAssay (Tox21).

target: Nuclear receptor subfamily 1 group I member 2 (Homo sapiens); assay: Human pregnane X receptor (PXR) activation by small molecules, qHTS assay (AID 1346985); conditions: DPX-2 HepG2 CYP3A4-luciferase, 24 h; series mostly up to 38.3 µM; note: nearly all actives have a fitted effect of over 40% in size; for activation: % is set by controls: 0 for no effect and ±100 for the full control effect
Results filed as inconclusive are left out. Active and inactive are the calls of the source. Calls come from the whole dose curve; as a rule, active = well fitted activation curve with a large enough effect in the repeat runs; inconclusive = weak or mixed curves; inactive = flat fitted curve, though single readings scatter.
Output constraint: value belongs to active, inactive

CC1=C(/C=C/C(C)=C/C=C/C(C)=C/C=C/C=C(C)/C=C/C=C(C)/C=C/C2=C(C)C(=O)CCC2(C)C)C(C)(C)CCC1=O : inactive
CCN(CC)CCCC(C)Nc1cc(/C=C/c2ccccc2Cl)nc2cc(Cl)ccc12 (stereo not given) : active
CCCCCc1ccc(C)cc1O : inactive
CC1(C)S[C@@H]2[C@H](NC(=O)C(C(=O)O)c3ccsc3)C(=O)N2[C@H]1C(=O)O (stereo not given in full) : inactive
Cc1cc(C(=O)NNCc2ccccc2)no1 : inactive
C#C[C@]1(O)CC[C@H]2[C@@H]3CCC4=C(CCC(=O)C4)[C@H]3CC[C@@]21C : inactive
CS(=O)(=O)c1ccc(C2=C(c3ccccc3)C(=O)OC2)cc1 : inactive
CC(C)CN(C[C@@H](OP(=O)(O)O)[C@H](Cc1ccccc1)NC(=O)O[C@H]1CCOC1)S(=O)(=O)c1ccc(N)cc1 : active
O=C(NNCS(=O)(=O)O)c1ccncc1 : inactive

For CC[C@H](C)[C@@H]1NC(=O)[C@H](Cc2ccc(O)cc2)NC(=O)[C@@H](N)CSSC[C@@H](C(=O)N2CCC[C@H]2C(=O)N[C@@H](CC(C)C)C(=O)NCC(N)=O)NC(=O)[C@H](CC(N)=O)NC(=O)[C@H](CCC(N)=O)NC1=O , what call appears in the results of this test? inactive

----------
assay: qHTS assay for identifying genotoxic compounds that show differential cytotoxicity against isogenic chicken DT40 cell lines with known DNA damage response pathways - Rev3 mutant cell line (AID 743014); conditions: chicken DT40 Rev3-/- viability, CellTiter-Glo, 40 h; series mostly up to 68.4 µM; note: nearly all actives have a fitted effect of over 55% in size; note: potency is the fitted concentration of half-maximal effect
Inconclusive results are not listed. Calls of active or inactive are those of the source. The call rests on the fitted dose curve; in most records, active means well fitted cell-killing curve with a large enough effect in the repeat runs; inconclusive means weak or mixed curves, or effect the other way; inactive means no such curve, though single readings can be large or run the other way.
metric: Potency

As a guide, the following entries are already answered.
CCOC(=O)Oc1c(OC)cc(C(=O)O[C@@H]2C[C@@H]3CN4CCc5c([nH]c6cc(OC)ccc56)[C@H]4C[C@@H]3[C@H](C(=O)OC)[C@H]2OC)cc1OC : 11400 nM (active)
CC1=C(/C=C/C(C)=C/C=C/C(C)=C/C=C/C=C(C)/C=C/C=C(C)/C=C/C2=C(C)C(=O)CCC2(C)C)C(C)(C)CCC1=O : inactive
CCCc1nc(C(C)(C)O)c(C(=O)OCc2oc(=O)oc2C)n1Cc1ccc(-c2ccccc2-c2nn[nH]n2)cc1 : inactive
CCOC(=O)[C@@H](N)CS : inactive
CCCCC(C)(O)C/C=C/[C@H]1[C@H](O)CC(=O)[C@@H]1CCCCCCC(=O)OC (stereo partly drawn) : 1680 nM (active)

Return Potency for the following compound: O=C(Cn1c(=O)sc2ccc(Cl)cc21)N1CCN(CCO)CC1 inactive

Return Potency for the following compound: CCOC(=O)CCC(=O)O[C@H]1[C@H](O[C@@H]2[C@@H](C)[C@H](O[C@H]3C[C@@](C)(OC)[C@@H](O)[C@H](C)O3)[C@@H](C)C(=O)O[C@H](CC)[C@@](C)(O)[C@H](O)[C@@H](C)C(=O)[C@H](C)C[C@@]2(C)O)O[C@H](C)C[C@@H]1N(C)C inactive

Return Potency for the following compound: NCCCNCCCCNC(=O)C(O)NC(=O)CCCCCCN=C(N)N (stereo not drawn) 1680 nM (active)

----------
assay: qHTS assay for small molecule disruptors of the mitochondrial membrane potential (AID 720635); details: HepG2 mitochondrial membrane potential, Mito-MPS dye ratio; series mostly up to 83.2 µM
Records with an inconclusive call do not appear. Calls of active or inactive are those of the source. Calls come from the whole dose curve; as a rule, active = well fitted inhibition curve with a large enough effect in the signal ratio in the repeat runs; inconclusive = weak or mixed curves, or effect the other way; inactive = flat fitted curve, though single readings scatter; the % refers to the signal ratio.
Output constraint: value belongs to 1.0 (active), 0.0 (inactive)

CCC(c1ccccc1)c1noc(CCN(CC)CC)n1 (centres undefined) : 0.0
COC(=O)[C@H]1[C@H]2C[C@@H]3c4[nH]c5cc(OC)ccc5c4CCN3C[C@H]2C[C@H](OC)[C@@H]1OC : 0.0
CCCCCCCCCCCCCCCCCC(=O)OCCO : 0.0
CCCCCCOc1ccc(C(=N)N(CCCC)CCCC)c2ccccc12 : 1.0
O=C(c1cc2ccccc2o1)N1CCN(Cc2ccccc2)CC1 : 0.0
CC(=O)OC[C@H]1O[C@@H](O[C@H]2[C@H](O)[C@@H](OC(=O)c3ccccc3C(=O)O)[C@H](O)O[C@@H]2COC(C)=O)[C@H](O)[C@@H](OC(=O)c2ccccc2C(=O)O)[C@@H]1O : 0.0
CC(Oc1ccccc1)C(=O)N[C@@H]1C(=O)N2[C@@H]1SC(C)(C)[C@@H]2C(=O)O (some centres undefined) : 0.0
CN=C(NC)NCc1ccccc1 : 0.0

Continue with the next molecule.
For CCCCCCCCCCCCCCCCCCCCCC(=O)Nc1ccn([C@@H]2O[C@H](CO)[C@@H](O)[C@@H]2O)c(=O)n1 , what call appears in the results of this test? 0.0

----------
test: qHTS assay to identify small molecule antagonists of the estrogen receptor alpha (ER-alpha) signaling pathway using the BG1 cell line - cell viability counter screen (AID 743081); settings: BG1Luc4E2 viability, CellTiter-Fluor, 22 h; series mostly up to 70.3 µM;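 note: compound given together with 17beta-estradiol as the ER stimulus; nearly all actives have a fitted effect of over 45% in size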
Inconclusive results are not listed. The source made the active and inactive calls. Calls come from the whole dose curve; as a rule, active = well fitted cell-killing curve with a large enough effect in the repeat runs; inconclusive = weak or mixed curves, or effect the other way; inactive = flat fitted curve, though single readings scatter.
Output constraint: value belongs to active, inactive

These recorded examples may help you get a feel for the data.
Nc1nc(=O)n([C@@H]2CS[C@H](CO)O2)cc1F : inactive
Cc1onc(-c2ccccc2)c1C(=O)N[C@@H]1C(=O)N2[C@@H]1SC(C)(C)[C@@H]2C(=O)O : inactive
CC(C)(C)CC(C)(C)c1cc(Cc2cc(C(C)(C)CC(C)(C)C)cc(-n3nc4ccccc4n3)c2O)c(O)c(-n2nc3ccccc3n2)c1 : inactive

For CC(C)(CO)[C@@H](O)C(=O)NCCC(=O)NCCSSCCNC(=O)CCNC(=O)[C@H](O)C(C)(C)CO , what call appears in the results of this test? inactive

For O=C(c1cc2ccccc2o1)N1CCN(Cc2ccccc2)CC1 , what call appears in the results of this test? inactive

----------
experiment: qHTS assay to identify small molecule antagonists of the estrogen receptor alpha (ER-alpha) signaling pathway using the BG1 cell line - cell viability counter screen (AID 743081); settings: BG1Luc4E2 viability, CellTiter-Fluor, 22 h; series mostly up to 70.3 µM;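 note: compound given together with 17beta-estradiol as the ER stimulus; nearly all actives have a fitted effect of over 45% in size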
Records with an inconclusive call do not appear. Activity calls are given as the source filed them. Calls follow the shape of the dose curve; as a rule, active = well fitted cell-killing curve with a large enough effect in the repeat runs; inconclusive = weak or mixed curves, or effect the other way; inactive = flat fitted curve, though single readings scatter. Positions of bridges follow the written chain, without caps; N, C: chain ends. Non-standard residues stand in square brackets, D forms with d. Residues, ends and D or L forms follow the SMILES beside them. ξ: configuration not given here. *: point of attachment. d(aThr) = C[C@@H](O)[C@@H](N)C(=O)O; ξThr(3R) = C[C@@H](O)C(N)C(=O)O; X3 = CC[C@@H](C)CCCCC(=O)*; dDab = NCC[C@@H](N)C(=O)O
Output constraint: value belongs to active, inactive

CC[C@@H](C)CCCCC(=O)N[C@H](CCN)C(=O)N[C@@H](C(=O)N[C@H](CCN)C(=O)N[C@@H]1CCNC(=O)C([C@@H](C)O)NC(=O)[C@@H](CCN)NC(=O)[C@@H](CCN)NC(=O)[C@@H](CC(C)C)NC(=O)[C@@H](Cc2ccccc2)NC(=O)[C@@H](CCN)NC1=O)[C@@H](C)O (stereo partly drawn) (X3-[dDab][d(aThr)][dDab][dDab][dDab][dF][dL][dDab][dDab][ξThr(3R)]; lactam 4-C) : inactive
CC(C)(S)[C@@H](N)C(=O)O : inactive
C#C[C@]1(O)CC[C@H]2[C@@H]3CCC4=C(CCC(=O)C4)[C@H]3CC[C@@]21C : inactive
CCCOc1ccc2nc(NC(=O)OC)sc2c1 : inactive
COC(=O)[C@H]1[C@H]2C[C@@H]3c4[nH]c5cc(OC)ccc5c4CCN3C[C@H]2C[C@@H](OC(=O)/C=C/c2cc(OC)c(OC)c(OC)c2)[C@@H]1OC : inactive
O=C(Cn1c(=O)sc2ccc(Cl)cc21)N1CCN(CCO)CC1 : inactive

For Cn1nnnc1SCC1=C(C(=O)O)N2C(=O)[C@@H](NC(=O)[C@H](OC=O)c3ccccc3)[C@H]2SC1 , what call appears in the results of this test? inactive

For COc1ccc(-c2noc(CC(=O)O)c2-c2ccc(OC)cc2)cc1 , what call appears in the results of this test? inactive

For CCCCC(C)(O)C/C=C/[C@H]1[C@H](O)CC(=O)[C@@H]1CCCCCCC(=O)OC (stereo partly specified) , what call appears in the results of this test? inactive

For CC(=O)N=c1sc(S(N)(=O)=O)nn1C , what call appears in the results of this test? inactive

For CC[C@@H](C(=O)O)[C@@H]1O[C@@H]([C@@H](C)[C@H](O)[C@H](C)C(=O)[C@H](CC)[C@H]2O[C@]3(C=C[C@@H](O)[C@]4(CC[C@@](C)([C@H]5CC[C@](O)(CC)[C@H](C)O5)O4)O3)[C@H](C)C[C@@H]2C)[C@@H](C)C[C@@H]1C , what call appears in the results of this test? active

For OCCO[C@@H]1[C@@H](O)[C@H](O)[C@@H](CO)O[C@@H]1O , what call appears in the results of this test? inactive

For CC(=O)Oc1c(C)cc(OCC(O)CNC(C)C)c(C)c1C (stereo unspecified) , what call appears in the results of this test? inactive

For C=CCOc1ccc(CC(=O)O)cc1Cl , what call appears in the results of this test? inactive

For CC(=O)Nc1ccc(OC(=O)c2ccccc2O)cc1 , what call appears in the results of this test? inactive

For Cc1cc(-c2ccc(N=Nc3c(S(=O)(=O)O)cc4cc(S(=O)(=O)O)cc(N)c4c3O)c(C)c2)ccc1N=Nc1c(S(=O)(=O)O)cc2cc(S(=O)(=O)O)cc(N)c2c1O , what call appears in the results of this test? active
